# Tested on: LMP1 expression in Kem I cells
# ASSAY_INFO: microbe, parasite or virus in culture
# Type: cell-based, EBV
# CONDITION_PARAMETERS: human gammaherpesvirus 4, 48 h, read-out: Average LMP1 Fold Increase, Kem I cells, 2.5 uM, 48 hours, average of replicates 1 and 2
Where a name gives a salt, the structure may show the parent alone.
OBSERVATION_TYPE: fold induction at 2.5 µM
Answers are plain numbers.

| MOLECULE | fold induction at 2.5 µM |
| --- | --- |
| CC[C@H](C)C(=O)O[C@H]1C[C@@H](C)C=C2C=C[C@H](C)[C@H](CC[C@@H]3C[C@@H](O)CC(=O)O3)[C@H]21 | 0.96 |
| Oc1ncnc2[nH]ncc12 | 0.11 |
| O=C1CC[C@@]2(O)[C@H]3Cc4ccc(O)c5c4[C@@]2(CCN3CC2CC2)[C@H]1O5 [Naltrexone HCl] | 0.27 |
| OC(CNCC(O)C1CCc2cc(F)ccc2O1)C1CCc2cc(F)ccc2O1 (centres unmarked) | 1.16 |
| CC(NC(=O)c1ccccc1/N=C/c1c(O)ccc2ccccc12)c1ccccc1 (centres unmarked) | 0.6 |
| CN1CCC[C@@H]1CCO[C@](C)(c1ccccc1)c1ccc(Cl)cc1 [Clemastine Fumarate] | 0.67 |

Record fold induction at 2.5 µM for all entries; do not skip any.
1. C#CCC(Cc1cnc2nc(N)nc(N)c2n1)c1ccc(C(=O)N[C@@H](CCC(=O)O)C(=O)O)cc1 (some centres unmarked) [Pralatrexate]
2. C=CCn1c(=O)c2cnc(Nc3ccc(N4CCN(C)CC4)cc3)nc2n1-c1cccc(C(C)(C)O)n1

Ans.
[3.49, 5.22]
